target: Pyruvate dehydrogenase kinase (Homo sapiens, UniProt Q15119+Q15120+Q16654+Q15118); assay: Binding affinity to pyruvate dehydrogenase kinase (unknown origin) by VER-00160364 probe based fluorescence polarization assay
Measured Property: IC50

Bench note: what IC50 did Cc1cccnc1-c1ccc2c(c1)CCC(c1cccnc1)N2C(=O)c1ccc(O)cc1O (centres undefined) show?
10 nM

For C[C@H]1CCc2cc(-c3ncccc3C(F)(F)F)ccc2N1C(=O)c1ccc(O)cc1O then?
100 nM

For NC(=O)COc1ccc2c(c1)CCCN2C(=O)c1ccc(O)cc1O then?
1000 nM

For O=C(c1ccc2c(c1)CCCN2C(=O)c1ccc(O)cc1O)N1Cc2ccccc2C1 then?
1000 nM

###

target: Pyruvate dehydrogenase kinase (Homo sapiens, UniProt Q15119+Q15120+Q16654+Q15118); test: Binding affinity to pyruvate dehydrogenase kinase (unknown origin) by VER-00160364 probe based fluorescence polarization assay
Measured Property: IC50 (nM)
Give your result in nM as a bare value.

Bench note: what IC50 did Cc1cnc(C)c(-c2ccc3c(c2)CC[C@H](C)N3C(=O)c2ccc(O)cc2O)n1 show?
100

For Cc1cccnc1-c1ccc2c(c1)CCC(C)N2C(=O)c1ccc(O)cc1O (centres undefined) then?
100

For Cc1nccn1-c1ccc(-c2ccc3c(c2)CC[C@H](C)N3C(=O)c2ccc(O)cc2O)nn1 then?
100

For Cn1ccnc1-c1ccc2c(c1)CCCN2C(=O)c1ccc(O)cc1O then?
1000

###

target: Pyruvate dehydrogenase kinase (Homo sapiens, UniProt Q15119+Q15120+Q16654+Q15118); test: Binding affinity to pyruvate dehydrogenase kinase (unknown origin) by VER-00160364 probe based fluorescence polarization assay
Measured Property: IC50 (nM)
Give your result in nM as a bare value.

Bench note: what IC50 did C[C@H]1CCc2cc(-c3nc4ccc(Cl)cc4cc3CO)ccc2N1C(=O)c1ccc(O)cc1O show?
100

For C[C@H]1CCc2cc(C(=O)N(C)Cc3ccc(Cl)cc3)ccc2N1C(=O)c1ccc(O)cc1O then?
100

For Cc1cn(C)c(-c2ccc3c(c2)CCC(C)N3C(=O)c2cc(Cl)c(O)cc2O)n1 (stereo not given) then?
1000

For CCc1cc2ccccc2nc1-c1ccc2c(c1)CC[C@H](C)N2C(=O)c1ccc(O)cc1O then?
1000

For COc1ccccc1CN(C)C(=O)c1ccc2c(c1)CCC(C)N2C(=O)c1ccc(O)cc1O (stereo not given) then?
100

For CC1CCc2cc(C(=O)N(C)Cc3cc4cc(F)ccc4[nH]3)ccc2N1C(=O)c1ccc(O)cc1O (stereo not given) then?
100

For CC(=O)N1CCN(S(=O)(=O)c2cnc(-c3ccc4c(c3)CC[C@H](C)N4C(=O)c3ccc(O)cc3O)c(C)c2)CC1 then?
10

For CC1CCc2cc(C(=O)N(C)CC(F)(F)F)ccc2N1C(=O)c1ccc(O)cc1O (stereo not given) then?
100

For C[C@H]1CCc2cc(-c3ccc(N4CCCC4)nn3)ccc2N1C(=O)c1ccc(O)cc1O then?
100

For C[C@@H]1CCc2cc(F)ccc2N1C(=O)c1ccc(O)cc1O then?
1000

For CC1CCc2cc(C(=O)N(C)CCc3ccccn3)ccc2N1C(=O)c1ccc(O)cc1O (stereo not given) then?
100

For Cc1ncc(C)c(-c2ccc3c(c2)CC[C@H](C)N3C(=O)c2ccc(O)cc2O)n1 then?
10

For CNc1nccc(-c2ccc3c(c2)CC[C@H](C)N3C(=O)c2ccc(O)cc2O)n1 then?
100

For C[C@H]1CCc2cc(-c3nccc4occc34)ccc2N1C(=O)c1ccc(O)cc1O then?
1000

For O=C(c1ccc(O)cc1O)N1c2ccc(-c3nc(Cl)nc4[nH]ccc34)cc2CCC1c1cccnc1 (stereo not given) then?
100

For C[C@H]1CCc2cc(-c3ncnc4cccc(F)c34)ccc2N1C(=O)c1ccc(O)cc1O then?
10

For O=C(c1ccc(O)cc1O)N1c2ccccc2CCC1c1cccs1 (stereo not given) then?
1000

For N#Cc1cccnc1-c1ccc2c(c1)CCCN2C(=O)c1ccc(O)cc1O then?
1000

For CC1CCc2ccccc2N1C(=O)c1ccc(O)cc1O (stereo not given) then?
100

For CC1CCc2cc(C(=O)N(C)Cc3nc4ccccc4n3C)ccc2N1C(=O)c1ccc(O)cc1O (stereo not given) then?
100

For O=C(c1ccc(O)cc1O)N1CCCc2cc(Br)ccc21 then?
1000

For C[C@H]1CCc2cc(C(=O)N(C)Cc3cccnc3)ccc2N1C(=O)c1ccc(O)cc1O then?
100

For C[C@H]1CCc2cc(C(=O)N(C)Cc3ccc(F)cc3)ccc2N1C(=O)c1ccc(O)cc1O then?
100

For COCCNS(=O)(=O)c1cnc(-c2ccc3c(c2)CC[C@H](C)N3C(=O)c2ccc(O)cc2O)c(C)c1 then?
100

For COc1ccc(CN(C)C(=O)c2ccc3c(c2)CC[C@H](C)N3C(=O)c2ccc(O)cc2O)cc1 then?
100
